// reported IC50 per item
# Target of assay: 3-hydroxy-3-methylglutaryl-CoA reductase (Rattus norvegicus, UniProt P51639)
# Construct: Employed as an enzyme microsome of rat liver; from tissue; host or cells: rat liver microsomes
# Experiment: Inhibition of 3-hydroxy-3-methylglutaryl-CoA reductase
# Type: biochemical
# Condition info: enzyme: microsome of rat liver; read-out: Concentration to inhibit 50% of 3-hydroxy-3-methylglutaryl-CoA reductase (converted)
Write the answer as a number in nM, unit excluded.

Reference set, count: 4
| Compound | Target of assay | Unit tag | Quantitative readout |
| --- | --- | --- | --- |
| CCC(C)C(=O)OC1CCC=C2C=CC(C)C(CCC(O)CC(O)CC(=O)OCc3ccccc3)C21 (stereo not shown) [benzyl, Benzyl ML-236B carboxylate] | 3-hydroxy-3-methylglutaryl-CoA reductase (Rattus norvegicus, UniProt P51639) | nM | 401 |
| CCC(C)C(=O)OC1CCC=C2C=CC(C)C(CCC(O)CC(O)CC(=O)OCC(=O)c3ccc(Br)cc3)C21 (stereo not shown) [4-bromophenacyl, 4-Bromophenacyl ML-236B carboxylate] | 3-hydroxy-3-methylglutaryl-CoA reductase (Rattus norvegicus, UniProt P51639) | nM | 330 |
| CCCCOC(=O)CC(O)CC(O)CCC1C(C)C=CC2=CCCC(OC(=O)C(C)CC)C21 (stereo not shown) [n-butyl, n-Butyl ML-236B carboxylate] | 3-hydroxy-3-methylglutaryl-CoA reductase (Rattus norvegicus, UniProt P51639) | nM | 344 |
| CCC(C)C(=O)OC1CCC=C2C=CC(C)C(CCC(O)CC(O)CC(=O)OCc3ccc(C)cc3)C21 (stereo not shown) [4-methylbenzyl, 4-Methylbenzyl ML-236B carboxylate] | 3-hydroxy-3-methylglutaryl-CoA reductase (Rattus norvegicus, UniProt P51639) | nM | 390 |

Query block: Fill in: IC50 of CCC(C)C(=O)OC1CCC=C2C=CC(C)C(CCC(O)CC(O)CC(=O)OCC(=O)c3ccc(OC)cc3)C21 (stereo not shown) [4-methoxyphenacyl, 4-Methoxyphenacyl ML-236B carboxylate] is ___
Result block: 359

Query block: // query: CCC(C)C(=O)OC1CCC=C2C=CC(C)C(CCC(O)CC(O)CC(=O)OCC(=O)c3ccccc3)C21 (stereo not shown) [phenacyl, Phenacyl ML-236B carboxylate]
Result block: 380

Query block: How about this compound: CCC(C)C(=O)OC1CCC=C2C=CC(C)C(CCC(O)CC(O)CC(=O)O)C21 (stereo not shown) [Na, Sodium ML-236B carboxylate]
Result block: 392

* * *

# Target of assay: 3-hydroxy-3-methylglutaryl-CoA reductase (Rattus norvegicus)
# Construct: Employed as an enzyme microsome of rat liver; from tissue; host or cells: rat liver microsomes
# Sequence (P51639 1-887): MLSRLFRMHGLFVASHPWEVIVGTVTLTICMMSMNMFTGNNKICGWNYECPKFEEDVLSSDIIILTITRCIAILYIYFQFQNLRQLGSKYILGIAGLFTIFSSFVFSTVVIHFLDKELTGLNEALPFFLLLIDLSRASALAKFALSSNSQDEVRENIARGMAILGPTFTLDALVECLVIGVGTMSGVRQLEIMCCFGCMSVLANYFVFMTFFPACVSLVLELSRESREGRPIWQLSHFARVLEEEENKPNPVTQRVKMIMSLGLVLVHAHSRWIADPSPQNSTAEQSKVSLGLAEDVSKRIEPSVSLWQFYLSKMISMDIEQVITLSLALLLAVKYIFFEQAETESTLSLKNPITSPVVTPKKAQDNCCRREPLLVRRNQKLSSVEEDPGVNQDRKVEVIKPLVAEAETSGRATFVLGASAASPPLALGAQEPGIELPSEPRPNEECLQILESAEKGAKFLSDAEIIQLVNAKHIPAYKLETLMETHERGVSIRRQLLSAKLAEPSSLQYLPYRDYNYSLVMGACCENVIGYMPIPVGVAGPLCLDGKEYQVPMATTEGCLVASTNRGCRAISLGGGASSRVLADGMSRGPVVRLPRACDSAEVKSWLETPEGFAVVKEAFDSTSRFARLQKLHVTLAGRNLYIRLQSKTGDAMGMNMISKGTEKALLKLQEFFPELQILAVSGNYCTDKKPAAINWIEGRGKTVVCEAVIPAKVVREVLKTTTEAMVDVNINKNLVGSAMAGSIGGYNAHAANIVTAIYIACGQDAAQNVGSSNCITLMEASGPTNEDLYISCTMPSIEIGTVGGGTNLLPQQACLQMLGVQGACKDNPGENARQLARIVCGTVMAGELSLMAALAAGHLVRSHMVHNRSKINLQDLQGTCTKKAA
# Experiment: Inhibition of 3-hydroxy-3-methylglutaryl-CoA reductase
# Format: biochemical
Endpoint label: pIC50
To interpret pIC50, take it as minus log10 of a concentration measured in moles per litre.

// solved cases for pIC50 follow
| Compound | pIC50 |
| --- | --- |
| CCC(C)C(=O)OC1CCC=C2C=CC(C)C(CCC(O)CC(O)CC(=O)OCc3ccc(OC)cc3)C21 (stereo not drawn) [4-methoxybenzyl, 4-Methoxybenzyl ML-236B carboxylate] | 6.42 |
| CCC(C)C(=O)OC1CCC=C2C=CC(C)C(CCC(O)CC(O)CC(=O)OC)C21 (stereo not drawn) [methyl, Methyl ML-236B carboxylate] | 6.45 |

Note: attention shifts to another entry.
Query block: For the compound shown here, CCOC(=O)CC(O)CC(O)CCC1C(C)C=CC2=CCCC(OC(=O)C(C)CC)C21 (stereo not drawn) [ethyl, Ethyl ML-236B carboxylate] , give the reported pIC50.
Result block: 6.44

* * *

# Target of assay: 3-hydroxy-3-methylglutaryl-CoA reductase (Rattus norvegicus, UniProt P51639)
# Construct: Employed as an enzyme microsome of rat liver; from tissue; host or cells: rat liver microsomes
# Experiment: Inhibition of 3-hydroxy-3-methylglutaryl-CoA reductase
# Type: biochemical
# Condition info: enzyme: microsome of rat liver; read-out: Concentration to inhibit 50% of 3-hydroxy-3-methylglutaryl-CoA reductase (converted)
Counter-ions that a name gives are not always drawn.
Field: label. Allowed values: yes (IC50 < 0.4 µM) or no (IC50 >= 0.4 µM).

Worked set:
| Compound | Answer label |
| --- | --- |
| CCC(C)C(=O)OC1CCC=C2C=CC(C)C(CCC(O)CC(O)CC(=O)O)C21 (stereo not drawn) [Arginine, Arginine salt of ML-236B carboxylic acid] | no |
| CCC(C)C(=O)OC1CCC=C2C=CC(C)C(CCC3CC(O)CC(=O)O3)C21 (stereo not drawn) [ML-236B] | no |
| CCC(C)C(=O)OC1CCC=C2C=CC(C)C(CCC(O)CC(O)CC(=O)OC(C)C)C21 (stereo not drawn) [isopropyl, Isopropyl ML-236B carboxylate] | yes |
| CCCCCCOC(=O)CC(O)CC(O)CCC1C(C)C=CC2=CCCC(OC(=O)C(C)CC)C21 (stereo not drawn) [n-hexyl, Hexyl ML-236B carboxylate] | yes |
| CCC(C)C(=O)OC1CCC=C2C=CC(C)C(CCC(O)CC(O)CC(=O)OCC(=O)c3ccc(C)cc3)C21 (stereo not drawn) [4-methylphenacyl, 4-Methylphenacyl ML-236B carboxylate] | yes |

Continue with the next compound.
Query block: is_below(IC50, 0.4 µM) for CCC(C)C(=O)OC1CCC=C2C=CC(C)C(CCC(O)CC(O)CC(=O)OCc3ccc(Cl)cc3)C21 (stereo not drawn) [4-chlorobenzyl, 4-Chlorobenzyl ML-236B carboxylate] ?
Result block: yes

* * *

Form field: inhibition in vivo at 100 mg/kg/day (one value per entry).
# Tested on: total serum cholesterol in beagle dogs
# Experiment: Lowering activity of blood cholesterol in beagle dogs
# Format: in vivo, beagle dog
# Condition info: Canis lupus familiaris, po, 120 h, beagle dogs, 100 mg/kg/day, oral twice per day, 5 days; read-out: Lowering rate of total serum cholesterol
// return numeric value only (unit: %, not printed)

| Compound | inhibition in vivo at 100 mg/kg/day / % |
| --- | --- |
| CCC(C)C(=O)OC1CCC=C2C=CC(C)C(CCC(O)CC(O)CC(=O)OCC(=O)c3ccc(Br)cc3)C21 (stereo not shown) [4-bromophenacyl, 4-Bromophenacyl ML-236B carboxylate] | 30 |
| CCC(C)C(=O)OC1CCC=C2C=CC(C)C(CCC(O)CC(O)CC(=O)OCc3ccccc3)C21 (stereo not shown) [benzyl, Benzyl ML-236B carboxylate] | 38 |
| CCC(C)C(=O)OC1CCC=C2C=CC(C)C(CCC3CC(O)CC(=O)O3)C21 (stereo not shown) [ML-236B] | 19 |

Query block: Returns the measured inhibition in vivo at 100 mg/kg/day for the input compound. Input: CCC(C)C(=O)OC1CCC=C2C=CC(C)C(CCC(O)CC(O)CC(=O)O)C21 (stereo not shown) [Na, Sodium ML-236B carboxylate]
Result block: 47

* * *

# Tested on: serum cholesterol in rats
# Experiment: Lowering activity of blood cholesterol in rats
# Type: in vivo, rat
# Condition info: rats, 20 mg/kg, oral, after 18 hours; 20 mg/kg
Where a name gives a salt, the structure may show the parent alone.
Endpoint label: Lowering rate of serum cholesterol (%)
Hi! Could you send only the number? It should be in %, unit omitted.

| Compound | Target of assay | Unit tag | Lowering rate of serum cholesterol |
| --- | --- | --- | --- |
| CCC(C)C(=O)OC1CCC=C2C=CC(C)C(CCC(O)CC(O)CC(=O)O)C21 (stereo not shown) [Al, Aluminum ML-236B carboxylate] | serum cholesterol in rats | % | 22.1 |
| CCC(C)C(=O)OC1CCC=C2C=CC(C)C(CCC(O)CC(O)CC(=O)O)C21 (stereo not shown) [Ca, Calcium ML-236B carboxylate] | serum cholesterol in rats | % | 20.9 |
| CCC(C)C(=O)OC1CCC=C2C=CC(C)C(CCC(O)CC(O)CC(=O)O)C21 (stereo not shown) [Arginine, Arginine salt of ML-236B carboxylic acid] | serum cholesterol in rats | % | 24.1 |

Query block: Give its Lowering rate of serum cholesterol value. Item: CCC(C)C(=O)OC1CCC=C2C=CC(C)C(CCC(O)CC(O)CC(=O)O)C21 (stereo not shown) [Lysine, Lysine salt of ML-236B carboxylic acid]
Result block: 23.8
